biological target: Thyroid hormone receptor beta (Homo sapiens, UniProt P10828); assay: Inhibition of TRbeta-LBD (unknown origin) interaction to texas red-labeled SRC2-2 peptide by fluorescence polarization assay
pIC50: −log10 of the molar value.
pIC50 values by entry
EXPERIMENTAL_READOUT: pIC50

smiles_repr=CS(=O)(=O)c1ccc(C(=O)NCC(=O)NC23CC4CC(CC(C4)C2)C3)cc1[N+](=O)[O-] value_observed=4.80
smiles_repr=CS(=O)(=O)c1ccc(C(=O)NCCC(=O)N(Cc2ccccc2)Cc2ccccc2)cc1[N+](=O)[O-] value_observed="< 4.22"
smiles_repr=CS(=O)(=O)c1ccc(C(=O)NCCCC(=O)N2CCN(c3ccccc3F)CC2)cc1[N+](=O)[O-] value_observed="< 4.22"
smiles_repr=CS(=O)(=O)c1ccc(C(=O)NCCCC(=O)N2CCN(c3ccccc3)CC2)cc1[N+](=O)[O-] value_observed="< 4.22"
smiles_repr=CS(=O)(=O)c1ccc(C(=O)NCC(=O)N(Cc2ccccc2)Cc2ccccc2)cc1[N+](=O)[O-] value_observed=5.44
smiles_repr=CC1CCN(C(=O)CCCNC(=O)c2ccc(S(C)(=O)=O)c([N+](=O)[O-])c2)CC1 value_observed="< 4.22"
smiles_repr=CS(=O)(=O)c1ccc(C(=O)NCCCC(=O)N2CCCCC2)cc1[N+](=O)[O-] value_observed="< 4.22"
smiles_repr=CS(=O)(=O)c1ccc(C(=O)N2CCC(C(=O)N3CCc4ccccc4C3)CC2)cc1[N+](=O)[O-] value_observed="< 4.22"

---

The entries below are paired with their reported IC50.
Molecular target: Thyroid hormone receptor beta (Homo sapiens)
Sequence (P10828 whole entry): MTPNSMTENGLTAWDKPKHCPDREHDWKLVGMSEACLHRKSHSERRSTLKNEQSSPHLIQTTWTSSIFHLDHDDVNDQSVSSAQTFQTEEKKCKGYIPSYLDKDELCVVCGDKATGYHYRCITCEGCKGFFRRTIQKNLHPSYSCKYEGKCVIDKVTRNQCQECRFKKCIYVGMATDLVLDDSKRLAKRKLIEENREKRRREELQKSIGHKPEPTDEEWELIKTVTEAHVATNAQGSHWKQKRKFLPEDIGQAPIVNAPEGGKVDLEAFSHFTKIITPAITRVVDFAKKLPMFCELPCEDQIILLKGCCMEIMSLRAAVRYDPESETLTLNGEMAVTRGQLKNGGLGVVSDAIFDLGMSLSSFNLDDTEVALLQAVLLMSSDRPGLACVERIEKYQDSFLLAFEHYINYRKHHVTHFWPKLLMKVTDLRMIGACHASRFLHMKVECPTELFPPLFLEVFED
Experiment: Inhibition of TRbeta-LBD (unknown origin) interaction to texas red-labeled SRC2-2 peptide by fluorescence polarization assay
EXPERIMENTAL_READOUT: IC50

smiles_repr=CN(Cc1cccc(F)c1)C(=O)CNC(=O)c1ccc(S(C)(=O)=O)c([N+](=O)[O-])c1 value_observed="> 60 µM"
smiles_repr=Cc1ccc(N2CCN(C(=O)C3CCN(C(=O)c4ccc(S(C)(=O)=O)c([N+](=O)[O-])c4)CC3)CC2)cc1 value_observed="> 60 µM"
smiles_repr=CS(=O)(=O)c1ccc(C(=O)NCCC(=O)NC23CC4CC(CC(C4)C2)C3)cc1[N+](=O)[O-] value_observed="31 µM"
smiles_repr=Cc1ccc(N2CCN(C(=O)CN(C)C(=O)c3ccc(S(C)(=O)=O)c([N+](=O)[O-])c3)CC2)cc1 value_observed="> 60 µM"
